All figures here come from the supplement of paper PMC10567573.

So I've got a bunch of variants here, and I need their protein stability index values.
B1: INTS3 (parent)
chain: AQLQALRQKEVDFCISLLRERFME

- Variants of: B1
- measurement protocol: protein stability index of a GFP-peptide fusion (GPS, HEK-293T) (PSI 1-6); higher = more stable;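 note: lentivirally expressed fusions sorted by FACS into six bins by GFP to DsRed ratio, PSI derived from sequencing read proportions per bin multiplied by bin number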
- experimental context: c terminus: a fixed tail appended
Answer field: number only, no words.

// returns reported protein stability index for input "D12V"
4.29

Reported protein stability index, variant "Q8D" : ____
2.83

Given "A5E" , state its recorded protein stability index.
2.24

Return reported protein stability index; argument: "L17S"
1.22

Recorded protein stability index of "F13I" , please.
2.49

Recorded protein stability index for "F22S" , please?
1.31

Request the reported protein stability index associated with "L18K"
2.34

Quick one: protein stability index of "M23A" ?
2.78

I have this variant here, "I15W" , and I need its recorded protein stability index.
2.07

I have this variant here, "F13W" , and I need its recorded protein stability index.
3.65

Tell me the measured protein stability index of "V11P" , please.
2.7

# get_value(readout='protein stability index', item= "E10N" )
1.32

# input variant: "A5M" ; wanted: its protein stability index
1.51

Item under review: "F13Q" . Reported protein stability index?
1.82

Entry "Q8K" has what protein stability index?
1.65

Return reported protein stability index; argument: "A5R"
2.15

Quick check: protein stability index of "M23T" ?
1.85

I am curious: what protein stability index value has been reported for "D12I" ?
1.91

If you can, please state the reported protein stability index value of "D12E" .
2.45

protein stability index for "L18V" ?
3.22

Entry "Q4M" : reported protein stability index = ?
2.55

protein stability index lookup needed for "E10M" , thanks.
2.87

Return reported protein stability index; argument: "K9S"
2.29

Record request: protein stability index value, item "Q2C"
2.98

Give the measured protein stability index of "D12K" .
1.98

I would be grateful if you could share the reported protein stability index for "R7P" .
2.23

Reported protein stability index for "F22C" : what is it?
1.19

Entry under review: "S16E" . Reported protein stability index?
3.24

Which value of protein stability index has been reported for "R7N" in the records?
2.35

Recorded protein stability index for "Q8E" , please?
1.91

Need protein stability index of "M23S" , thanks.
1.42

What value of protein stability index has been reported for the following variant? "I15M"
1.17

Which protein stability index is listed for "L6H" ?
2.11

Name the reported protein stability index value associated with the variant "Q2T"
3.02

Can you look up the measured protein stability index of "R19G" for me?
1.37

Given the entry "M23R" , report its measured protein stability index.
2.91
